Source of measurements: ChEMBL document CHEMBL5104174

Test: Metabolic stability in mouse plasma assessed parent compound remaining at 74 to 93 kBq incubated for 1 hrs by RP-HPLC analysis
Format: ADME, cell-free
Details: dose 74-93 kBq, read-out: Stability
experimental-endpoint: remaining at 1 h (%)

In [3]: df
Out[3]:
                                   compound  data_value
0  O[C@H]1CCC[C@@H]1N1CCN(CCc2cccc([125I])c2)CC1 (relative stereo)        95.6
1  O[C@H]1CCC[C@@H]1N1CCN(CCCc2cccc([125I])c2)CC1 (relative stereo)        96.5

###

Experiment: Stability of the compound in pH 7.4 phosphate buffer assessed as parent compound remaining at 22 to 82 kBq incubated for 24 hrs by RP-HPLC analysis
Format: physicochemical
Conditions: dose 22-82 kBq, read-out: Stability
experimental-endpoint: remaining at 24 h (%)

>>> df
                                   compound  experimental_endpoint  readout_units  data_value
0  O[C@H]1CCC[C@@H]1N1CCN(CCCc2cccc([125I])c2)CC1 (relative stereo)      remaining at 24 h              %        96.3
1  O[C@H]1CCC[C@@H]1N1CCN(CCc2cccc([125I])c2)CC1 (relative stereo)      remaining at 24 h              %        96.9

###

Target: Sigma non-opioid intracellular receptor 1 (Rattus norvegicus, UniProt Q9R0C9)
Sequence (Q9R0C9 whole entry): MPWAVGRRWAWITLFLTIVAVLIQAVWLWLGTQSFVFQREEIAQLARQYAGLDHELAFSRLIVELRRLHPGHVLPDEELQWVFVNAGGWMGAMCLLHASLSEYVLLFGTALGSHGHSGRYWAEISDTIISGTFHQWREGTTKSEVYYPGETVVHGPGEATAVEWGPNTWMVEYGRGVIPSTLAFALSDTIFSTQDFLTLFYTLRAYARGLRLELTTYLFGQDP
Experiment: Displacement of (+)-[3H]pentazocine from sigma-1 receptor in Sprague-Dawley rat cerebral membrane incubated for 90 mins by liquid scintillation counter analysis
experimental-endpoint: Ki (nM)

>>> print(df.to_string())
                                   compound                            assayed_target  data_value
0  O[C@H]1CCC[C@@H]1N1CCN(CCc2ccc(Br)cc2)CC1 (relative stereo)  Sigma non-opioid intracellular receptor 1 (Rattus norvegicus, UniProt Q9R0C9)         9.9

(a) O[C@H]1CCC[C@@H]1N1CCN(CCc2ccccc2Br)CC1 (relative stereo)
(b) O[C@H]1CCC[C@@H]1N1CCN(CCCc2ccccc2Br)CC1 (relative stereo)
Req: When the recorded Ki values are compared, which is smaller: that of a or that of b ? Please reply using the label of the selected record.
Resp: a
(a: 21.5 nM, b: 37.1 nM)

(a) O[C@H]1CCCC[C@@H]1N1CCN(CCCc2ccccc2Br)CC1 (relative stereo)
(b) O[C@H]1CCC[C@@H]1N1CCN(CCCc2ccc(Br)cc2)CC1 (relative stereo)
Req: When the recorded Ki values are compared, which is smaller: that of a or that of b ? Please reply using the label of the selected record.
Resp: b
(b: 8.1 nM, a: 19.4 nM)

(I) O[C@H]1CCCC[C@@H]1N1CCN(CCc2ccccc2Br)CC1 (relative stereo)
(II) O[C@H]1CCC[C@@H]1N1CCN(CCCc2cccc(I)c2)CC1 (relative stereo)
Req: Given the listed records, identify the one among I and II with higher Ki. Please reply using the label of the selected record.
Resp: II

###

Target: Sigma non-opioid intracellular receptor 1 (Rattus norvegicus, UniProt Q9R0C9)
Assay: Displacement of (+)-[3H]pentazocine from sigma-1 receptor in Sprague-Dawley rat cerebral membrane incubated for 90 mins by liquid scintillation counter analysis
experimental-endpoint: Ki (nM)

Sample answers from the record:
                                   molecule                            assayed_target  data_value
0  O[C@H]1CCC[C@@H]1N1CCN(CCCc2cccc(Br)c2)CC1 (relative stereo)  Sigma non-opioid intracellular receptor 1 (Rattus norvegicus, UniProt Q9R0C9)         4.8
1  O[C@H]1CCCC[C@@H]1N1CCN(CCc2cccc(Br)c2)CC1 (relative stereo)  Sigma non-opioid intracellular receptor 1 (Rattus norvegicus, UniProt Q9R0C9)        17.2

(1) O[C@H]1CCCC[C@@H]1N1CCN(CCCc2cccc(Br)c2)CC1 (relative stereo)
(2) O[C@H]1CCCC[C@@H]1N1CCN(CCCc2ccc(Br)cc2)CC1 (relative stereo)
(3) O[C@H]1CCC[C@@H]1N1CCN(CCc2cccc(Br)c2)CC1 (relative stereo)
Req: Could you please order the items by Ki, going from the lowest number to the highest? Give me the labels in the order the question wants.
Resp: 2, 1, 3
(2: 4.4 nM, 1: 7.7 nM, 3: 12.4 nM)
